Listed below: pIC50 values for each entry.
biological target: Nicotinic acetylcholine receptor alpha6/alpha3/beta4 (Rattus norvegicus, UniProt P04757+P12392+P43143); assay: Antagonist activity at rat alpha6/alpha3beta4 nACHR expressed in xenopous laevis oocyte assessed as inhibition of ACh induced channel current after 5 mins at -70 mV holding potential by two electrode voltage clamp method
Sequence (P04757 whole entry): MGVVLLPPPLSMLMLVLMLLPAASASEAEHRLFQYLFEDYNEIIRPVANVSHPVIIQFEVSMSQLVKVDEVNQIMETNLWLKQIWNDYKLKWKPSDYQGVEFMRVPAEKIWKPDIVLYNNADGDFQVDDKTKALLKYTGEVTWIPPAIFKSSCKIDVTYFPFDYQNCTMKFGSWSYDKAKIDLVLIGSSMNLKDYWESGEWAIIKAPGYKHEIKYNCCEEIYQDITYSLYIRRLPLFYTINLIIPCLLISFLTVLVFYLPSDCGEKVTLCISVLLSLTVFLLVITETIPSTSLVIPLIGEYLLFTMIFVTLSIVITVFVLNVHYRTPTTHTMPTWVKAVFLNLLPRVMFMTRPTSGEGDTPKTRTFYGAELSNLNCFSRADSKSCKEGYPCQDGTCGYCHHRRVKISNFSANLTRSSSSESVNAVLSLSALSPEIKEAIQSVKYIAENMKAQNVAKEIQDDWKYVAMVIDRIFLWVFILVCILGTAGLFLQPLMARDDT
Sequence (P12392 whole entry): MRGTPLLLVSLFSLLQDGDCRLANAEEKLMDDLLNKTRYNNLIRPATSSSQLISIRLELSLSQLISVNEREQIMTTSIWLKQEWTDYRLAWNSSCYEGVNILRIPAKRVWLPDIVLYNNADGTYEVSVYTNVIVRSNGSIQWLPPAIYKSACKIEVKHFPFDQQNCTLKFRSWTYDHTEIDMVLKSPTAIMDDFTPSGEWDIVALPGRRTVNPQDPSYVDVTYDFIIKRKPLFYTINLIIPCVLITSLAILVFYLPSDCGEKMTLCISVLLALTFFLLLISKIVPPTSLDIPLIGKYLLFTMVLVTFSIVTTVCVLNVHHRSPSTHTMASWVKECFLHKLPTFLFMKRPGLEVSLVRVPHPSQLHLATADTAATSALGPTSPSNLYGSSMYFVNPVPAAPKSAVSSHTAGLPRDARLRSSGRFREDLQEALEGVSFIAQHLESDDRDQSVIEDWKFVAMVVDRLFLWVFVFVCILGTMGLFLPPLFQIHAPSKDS
Sequence (P43143 whole entry): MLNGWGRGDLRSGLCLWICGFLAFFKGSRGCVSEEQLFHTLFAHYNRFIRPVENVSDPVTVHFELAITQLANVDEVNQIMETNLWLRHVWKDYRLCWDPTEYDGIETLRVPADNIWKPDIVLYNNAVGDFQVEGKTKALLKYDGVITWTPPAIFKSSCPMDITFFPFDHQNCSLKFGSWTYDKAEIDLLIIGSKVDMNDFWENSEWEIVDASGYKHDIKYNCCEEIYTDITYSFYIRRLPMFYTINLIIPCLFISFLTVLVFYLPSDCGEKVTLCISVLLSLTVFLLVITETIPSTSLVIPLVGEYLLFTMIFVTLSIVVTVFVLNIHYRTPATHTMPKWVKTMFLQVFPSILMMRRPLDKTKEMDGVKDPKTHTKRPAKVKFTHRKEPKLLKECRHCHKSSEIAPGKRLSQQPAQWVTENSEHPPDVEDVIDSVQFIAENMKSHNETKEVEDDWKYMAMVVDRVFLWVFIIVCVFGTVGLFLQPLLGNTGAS
pIC50: −log10 of the molar value. Where a SMILES comes first, the peptide text is derived from it. Bridges are numbered along the chain shown (N, C = ends). [ ]: non-standard residue; d: D form. hMet = CSCCC[C@H](N)C(=O)O
Measurement name: pIC50

Molecule: CC[C@H](C)[C@@H]1NC(=O)[C@H](CO)NC(=O)[C@@H]2CSSC[C@H](NC(=O)CN)C(=O)N[C@@H](CSSC[C@@H](C(N)=O)NC(=O)[C@H]([C@@H](C)CC)NC(=O)[C@@H]3CCCN3C(=O)[C@H](CO)NC(=O)[C@H](CCCSC)NC1=O)C(=O)N[C@@H](CO)C(=O)N[C@@H](Cc1cnc[nH]1)C(=O)N1CCC[C@H]1C(=O)N[C@@H](C(C)C)C(=O)N2 (H-GCCSHPVCSI[hMet]SPIC-NH2; disulfide 2-8, 3-15)
Recorded result: 7.30
--
Molecule: CSCCC[C@@H]1NC(=O)[C@H](C)NC(=O)[C@H](CO)NC(=O)[C@@H]2CSSC[C@H](NC(=O)CN)C(=O)N[C@@H](CSSC[C@@H](C(N)=O)NC(=O)[C@H](CC(=O)O)NC(=O)[C@@H]3CCCN3C(=O)[C@H](CO)NC1=O)C(=O)N[C@@H](CO)C(=O)N[C@@H](Cc1cnc[nH]1)C(=O)N1CCC[C@H]1C(=O)N[C@@H](C(C)C)C(=O)N2 (H-GCCSHPVCSA[hMet]SPDC-NH2; disulfide 2-8, 3-15)
Recorded result: 7.17
--
Molecule: CSCCC[C@@H]1NC(=O)[C@H](C)NC(=O)[C@H](CO)NC(=O)[C@@H]2CSSC[C@H](NC(=O)CN)C(=O)N[C@@H](CSSC[C@@H](C(N)=O)NC(=O)[C@H](Cc3ccc(O)cc3)NC(=O)[C@@H]3CCCN3C(=O)[C@H](CO)NC1=O)C(=O)N[C@@H](CO)C(=O)N[C@@H](Cc1cnc[nH]1)C(=O)N1CCC[C@H]1C(=O)N[C@@H](C(C)C)C(=O)N2 (H-GCCSHPVCSA[hMet]SPYC-NH2; disulfide 2-8, 3-15)
Recorded result: 7.41

----------
molecular target: Neuronal acetylcholine receptor; alpha3/beta4 (Rattus norvegicus, UniProt P04757+P12392); experiment: Antagonist activity at rat alpha3beta4 nACHR expressed in xenopous laevis oocyte assessed as inhibition of ACh induced channel current after 5 mins at -70 mV holding potential by two electrode voltage clamp method
Sequence (P04757 whole entry): as the sequence (P04757 whole entry) above
Sequence (P12392 whole entry): as the sequence (P12392 whole entry) above
Where a SMILES comes first, the peptide text is derived from it. Bridges are numbered along the chain shown (N, C = ends). [ ]: non-standard residue; d: D form. hMet = CSCCC[C@H](N)C(=O)O
Entries and their IC50 values follow.
Measurement name: IC50 (nM)

Molecule: C[C@@H]1NC(=O)[C@H](Cc2ccc(O)cc2)NC(=O)[C@@H]2CSSC[C@H](NC(=O)CN)C(=O)N[C@@H](CSSC[C@@H](C(N)=O)NC(=O)[C@H](CC(=O)O)NC(=O)[C@@H]3CCCN3C(=O)[C@H](CC(N)=O)NC(=O)[C@H]([C@@H](C)O)NC1=O)C(=O)N[C@@H](CO)C(=O)N[C@@H](Cc1ccc(O)cc1)C(=O)N1CCC[C@H]1C(=O)N1CCC[C@H]1C(=O)N2 (H-GCCSYPPCYATNPDC-NH2; disulfide 2-8, 3-15)
System under test: Neuronal acetylcholine receptor; alpha3/beta4 (Rattus norvegicus, UniProt P04757+P12392)
Quantity unit: nM
Comparison sign: =
Recorded result: 750
--
Molecule: CSCCC[C@@H]1NC(=O)[C@H](C)NC(=O)[C@H](CO)NC(=O)[C@@H]2CSSC[C@H](NC(=O)CN)C(=O)N[C@@H](CSSC[C@@H](C(N)=O)NC(=O)[C@H](Cc3ccc(O)cc3)NC(=O)[C@@H]3CCCN3C(=O)[C@H](CO)NC1=O)C(=O)N[C@@H](CO)C(=O)N[C@@H](Cc1cnc[nH]1)C(=O)N1CCC[C@H]1C(=O)N[C@@H](C(C)C)C(=O)N2 (H-GCCSHPVCSA[hMet]SPYC-NH2; disulfide 2-8, 3-15)
System under test: Neuronal acetylcholine receptor; alpha3/beta4 (Rattus norvegicus, UniProt P04757+P12392)
Quantity unit: nM
Comparison sign: =
Recorded result: 10
--
Molecule: CSCCC[C@@H]1NC(=O)[C@H](C)NC(=O)[C@H](CO)NC(=O)[C@@H]2CSSC[C@H](NC(=O)CN)C(=O)N[C@@H](CSSC[C@@H](C(N)=O)NC(=O)[C@H](C)NC(=O)[C@@H]3CCCN3C(=O)[C@H](CO)NC1=O)C(=O)N[C@@H](CO)C(=O)N[C@@H](Cc1cnc[nH]1)C(=O)N1CCC[C@H]1C(=O)N[C@@H](C(C)C)C(=O)N2 (H-GCCSHPVCSA[hMet]SPAC-NH2; disulfide 2-8, 3-15)
System under test: Neuronal acetylcholine receptor; alpha3/beta4 (Rattus norvegicus, UniProt P04757+P12392)
Quantity unit: nM
Comparison sign: =
Recorded result: 16.1
--
Molecule: CC[C@H](C)[C@@H]1NC(=O)[C@H](C)NC(=O)[C@H](CO)NC(=O)[C@H](CCCSC)NC(=O)[C@H](C)NC(=O)[C@H](CO)NC(=O)[C@@H]2CSSC[C@H](NC(=O)CN)C(=O)N[C@@H](CSSC[C@@H](C(N)=O)NC1=O)C(=O)N[C@@H](CO)C(=O)N[C@@H](Cc1cnc[nH]1)C(=O)N1CCC[C@H]1C(=O)N[C@@H](C(C)C)C(=O)N2 (H-GCCSHPVCSA[hMet]SAIC-NH2; disulfide 2-8, 3-15)
System under test: Neuronal acetylcholine receptor; alpha3/beta4 (Rattus norvegicus, UniProt P04757+P12392)
Quantity unit: nM
Comparison sign: >
Recorded result: 10000
--
Molecule: CC[C@H](C)[C@@H]1NC(=O)[C@@H]2CCCN2C(=O)[C@H](CO)NC(=O)[C@H](CCCSC)NC(=O)[C@H](C)NC(=O)[C@H](CO)NC(=O)[C@@H]2CSSC[C@H](NC(=O)CN)C(=O)N[C@@H](CSSC[C@@H](C(N)=O)NC1=O)C(=O)N[C@@H](CO)C(=O)N[C@@H](C)C(=O)N1CCC[C@H]1C(=O)N[C@@H](C(C)C)C(=O)N2 (H-GCCSAPVCSA[hMet]SPIC-NH2; disulfide 2-8, 3-15)
System under test: Neuronal acetylcholine receptor; alpha3/beta4 (Rattus norvegicus, UniProt P04757+P12392)
Quantity unit: nM
Comparison sign: >
Recorded result: 10000
--
Molecule: CC[C@H](C)[C@@H]1NC(=O)[C@@H]2CCCN2C(=O)[C@H](CO)NC(=O)[C@H](CCCSC)NC(=O)[C@H](C)NC(=O)[C@H](CO)NC(=O)[C@@H]2CSSC[C@H](NC(=O)[C@H](C)N)C(=O)N[C@@H](CSSC[C@@H](C(N)=O)NC1=O)C(=O)N[C@@H](CO)C(=O)N[C@@H](Cc1cnc[nH]1)C(=O)N1CCC[C@H]1C(=O)N[C@@H](C(C)C)C(=O)N2 (H-ACCSHPVCSA[hMet]SPIC-NH2; disulfide 2-8, 3-15)
System under test: Neuronal acetylcholine receptor; alpha3/beta4 (Rattus norvegicus, UniProt P04757+P12392)
Quantity unit: nM
Comparison sign: =
Recorded result: 61.9
--
Molecule: CSCCC[C@@H]1NC(=O)[C@H](C)NC(=O)[C@H](CO)NC(=O)[C@@H]2CSSC[C@H](NC(=O)CN)C(=O)N[C@@H](CSSC[C@@H](C(N)=O)NC(=O)[C@H](CC(=O)O)NC(=O)[C@@H]3CCCN3C(=O)[C@H](CO)NC1=O)C(=O)N[C@@H](CO)C(=O)N[C@@H](Cc1cnc[nH]1)C(=O)N1CCC[C@H]1C(=O)N[C@@H](C(C)C)C(=O)N2 (H-GCCSHPVCSA[hMet]SPDC-NH2; disulfide 2-8, 3-15)
System under test: Neuronal acetylcholine receptor; alpha3/beta4 (Rattus norvegicus, UniProt P04757+P12392)
Quantity unit: nM
Comparison sign: =
Recorded result: 9.2
--
Molecule: CC[C@H](C)[C@@H]1NC(=O)[C@H](CO)NC(=O)[C@@H]2CSSC[C@H](NC(=O)CN)C(=O)N[C@@H](CSSC[C@@H](C(N)=O)NC(=O)[C@H]([C@@H](C)CC)NC(=O)[C@@H]3CCCN3C(=O)[C@H](CO)NC(=O)[C@H](CCCSC)NC1=O)C(=O)N[C@@H](CO)C(=O)N[C@@H](Cc1cnc[nH]1)C(=O)N1CCC[C@H]1C(=O)N[C@@H](C(C)C)C(=O)N2 (H-GCCSHPVCSI[hMet]SPIC-NH2; disulfide 2-8, 3-15)
System under test: Neuronal acetylcholine receptor; alpha3/beta4 (Rattus norvegicus, UniProt P04757+P12392)
Quantity unit: nM
Comparison sign: =
Recorded result: 74.9
--
Molecule: CC[C@H](C)[C@@H]1NC(=O)[C@@H]2CCCN2C(=O)[C@H](CO)NC(=O)[C@H](CCCSC)NC(=O)[C@H](C)NC(=O)[C@H](CO)NC(=O)[C@@H]2CSSC[C@H](NC(=O)CN)C(=O)N[C@@H](CSSC[C@@H](C(N)=O)NC1=O)C(=O)N[C@@H](C)C(=O)N[C@@H](Cc1cnc[nH]1)C(=O)N1CCC[C@H]1C(=O)N[C@@H](C(C)C)C(=O)N2 (H-GCCAHPVCSA[hMet]SPIC-NH2; disulfide 2-8, 3-15)
System under test: Neuronal acetylcholine receptor; alpha3/beta4 (Rattus norvegicus, UniProt P04757+P12392)
Quantity unit: nM
Comparison sign: =
Recorded result: 10.8
--
Molecule: CC[C@H](C)[C@@H]1NC(=O)[C@@H]2CCCN2C(=O)[C@H](CO)NC(=O)[C@H](CCCSC)NC(=O)[C@H](C)NC(=O)[C@H](CO)NC(=O)[C@@H]2CSSC[C@H](NC(=O)CN)C(=O)N[C@@H](CSSC[C@@H](C(N)=O)NC1=O)C(=O)N[C@@H](CO)C(=O)N[C@@H](Cc1cnc[nH]1)C(=O)N[C@@H](C)C(=O)N[C@@H](C(C)C)C(=O)N2 (H-GCCSHAVCSA[hMet]SPIC-NH2; disulfide 2-8, 3-15)
System under test: Neuronal acetylcholine receptor; alpha3/beta4 (Rattus norvegicus, UniProt P04757+P12392)
Quantity unit: nM
Comparison sign: >
Recorded result: 10000
--
Molecule: CC(C)C[C@@H]1NC(=O)[C@H](C(C)C)NC(=O)[C@H](C)NC(=O)[C@@H]2CSSC[C@H](NC(=O)CN)C(=O)N[C@@H](CSSC[C@H](C(N)=O)NC(=O)[C@H](Cc3ccc(O)cc3)NC1=O)C(=O)N[C@@H](CO)C(=O)N[C@@H](C)C(=O)N[C@@H](CCCN)C(=O)N1CCC[C@H]1C(=O)N2
System under test: Neuronal acetylcholine receptor; alpha3/beta4 (Rattus norvegicus, UniProt P04757+P12392)
Quantity unit: nM
Comparison sign: =
Recorded result: 1200
